# Tested on: brain
# Test Summary: NGS fold enrichment of synthetic library (passage 3) in BALB/c mice, first cross-species screen
# Format: in vivo
# Applied Conditions: synthetic library passage 3, intravenous, RNA NGS, brain of BALB/c mice, relative to wild-type AAV9
Property Measured: Fold enrichment over AAV9 in the brain of Mice (BALB/c) (fold)

INSERT INTO assay_data (sequence_entry, system_tested, uom, observed_result) VALUES
  ('GSSKELLWGQNQQT', 'brain', 'fold', 0.883),
  ('GPGLPNHSGQNQQT', 'brain', 'fold', 0.659),
  ('GSGKGHSAGQNQQT', 'brain', 'fold', 1.173);

Numbers sourced from patent US20260250318A1.
